Target: human GCGR (human, UniProt P47871 26-477)
Sequence (P47871 26-477): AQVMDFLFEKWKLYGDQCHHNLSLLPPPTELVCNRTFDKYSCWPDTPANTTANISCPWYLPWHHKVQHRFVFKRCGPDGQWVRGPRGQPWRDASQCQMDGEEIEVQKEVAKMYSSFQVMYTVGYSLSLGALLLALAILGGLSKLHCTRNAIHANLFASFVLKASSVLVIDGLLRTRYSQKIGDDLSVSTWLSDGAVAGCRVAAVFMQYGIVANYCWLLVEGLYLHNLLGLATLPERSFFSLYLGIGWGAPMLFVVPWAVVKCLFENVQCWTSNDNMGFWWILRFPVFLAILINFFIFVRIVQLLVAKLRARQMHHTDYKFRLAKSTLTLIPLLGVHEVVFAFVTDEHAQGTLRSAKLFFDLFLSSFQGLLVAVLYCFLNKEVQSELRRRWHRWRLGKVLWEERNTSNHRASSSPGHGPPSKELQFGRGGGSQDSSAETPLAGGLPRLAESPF
Test: cell-based or functional assay
Bridges are numbered along the chain shown (N, C = ends). Where no end group is shown, it is not given here. [ ]: non-standard residue; d: D form. L4A = not defined here; K0 = not defined here; K4 = not defined here; K5 = not defined here
Rule: EC50 cAMP 0% FBS below 300 pM gives t. Equal to or above 300 pM gives f.

A record lists H[dS]QGTFTSDYSKYLDEKAAKEFIKWLLNGGPSSGAPPPS (linker 17-24 via K0; ends not checked) [Conjugate 124] . Is its EC50 cAMP 0% FBS below 300 pM? f

Now the binder H[dS]QGTFTSDYSKYLDECAAKEFICWLLRA (linker 17-24 via L4A; reading uncertain) [Conjugate 136] f

For HXQGTFTSDYSKYLDKKAAKEFKQWLLNGPSSGAPPPS (staple K4 on Lys 16, 23; Aib 2) [Conjugate 128] then? f

Now consider H[dS]QGTFTSDYSKYLDEKAAKEFIKWLLNGGPSSGAPPPS (linker 17-24 via K5; ends not checked) [Conjugate 121] and answer again. f

Same lookup for H[dS]QGTFTSDYSKYLDEKAAKEFIKWLLNGGPSSGAPPPS (linker 17-24 via K4; ends not checked) [Conjugate 122] , please. t

Reference source: patent US20230071371A1
